GI50 values by entry
Tested on: SNB-19
Assay: NCI tumour cell line growth inhibition, 48 h
The source made the active and inactive calls. Rule as the data show it: active = GI50 up to about 1.1 µM and inactive = higher.

{"molecule": "COc1cc(O)c2c(=O)c3c(C)cccc3n(C)c2c1", "tested on": "SNB-19", "GI50": "> 10 µM (inactive)"}
{"molecule": "CNC(=O)N(C)COC", "tested on": "SNB-19", "GI50": "> 100 µM (inactive)"}
{"molecule": "COC(C(=O)NN)c1ccccc1 (configuration not stated)", "tested on": "SNB-19", "GI50": "> 100 µM (inactive)"}
{"molecule": "C=CCC(SC)C1=C(C)C(=O)c2ccccc21 (configuration not stated)", "tested on": "SNB-19", "GI50": "> 10 µM (inactive)"}
{"molecule": "CC#COS(=O)(=O)c1ccc(C)cc1", "tested on": "SNB-19", "GI50": "> 100 µM (inactive)"}

For the molecule shown here, Cc1cc(N(CCC#N)CCC#N)ccc1/C=C(\N=[N+]=[N-])C(=O)NC(=O)COc1ccccc1 , give the reported GI50. > 76.6 µM (inactive)

For the molecule shown here, COc1ccc(/C=C2\CCC(CN3CCOCC3)C2=O)cc1 (configuration not stated) , give the reported GI50. 11.4 µM (inactive)

* * *

Test system: HOP-62
Assay: NCI tumour cell line growth inhibition, 48 h
Activity calls are given as the source filed them. Cut-off read from the data, not from the text of the source: active = GI50 up to about 1.1 µM and inactive = higher.
measurement kind: GI50

# count of solved cases: 3
{"compound": "c1ccc(C2SCc3nc4ccccc4n32)cc1 (stereo unspecified)", "tested on": "HOP-62", "observed measurement": "43.8 µM (inactive)"}
{"compound": "COc1ccc(C2=NC(C)(C)CO2)cc1", "tested on": "HOP-62", "observed measurement": "> 100 µM (inactive)"}
{"compound": "CCCC[C@H]1C(=O)O[C@H](C)[C@H](NC(=O)c2cccc(NC=O)c2OC)C(=O)O[C@@H](C)[C@@H]1OC(=O)C(C)CC.CCCC[C@H]1C(=O)O[C@H](C)[C@H](NC(=O)c2cccc(NC=O)c2OC)C(=O)O[C@@H](C)[C@@H]1OC(=O)CC(C)C (stereo partly specified)", "tested on": "HOP-62", "observed measurement": "17.8 µM (inactive)"}

For the compound shown here, O=c1cc(CO)n(CCc2c[nH]c3ccccc23)cc1O , give the reported GI50. 62.7 µM (inactive)

* * *

Test system: NCI/ADR-RES
Test: NCI tumour cell line growth inhibition, 48 h
Activity calls are given as the source filed them. No stated cut-off is given here; in the data, active = GI50 up to about 1.1 µM and inactive = higher.
GI50 values by entry

{"compound": "CC(=O)OC1C(O)C(C)OC(OC(=O)C2CCC3C(C2)OC2(CC(OC(=O)/C=C/c4ccccc4)C(C)CO2)C32CO2)C1OC1OC(C)C(O)C(O)C1O (stereo not given)", "GI50": "21.7 µM (inactive)"}
{"compound": "COc1cc2c(cc1OC)CN1CCCc3cc(OC)c(OC)cc3C1C2 (stereo not given)", "GI50": "> 100 µM (inactive)"}
{"compound": "CCN(CC)P1(=S)Oc2ccc3ccccc3c2-c2c(ccc3ccccc23)O1", "GI50": "> 100 µM (inactive)"}
{"compound": "CN(Cc1cnc2nc(N)nc(N)c2n1)c1ccc(C(=O)NC23CC4CC(CC(C4)C2)C3)cc1", "GI50": "42.8 µM (inactive)"}

Now take the following compound into account.
For the compound shown here, COc1ccc(/N=c2/[nH]c(N)c(C(=O)c3ccc(OC)cc3)s2)cc1 , give the reported GI50. 0.211 µM (active)

* * *

System: SK-OV-3
Test: NCI tumour cell line growth inhibition, 48 h
Active and inactive are the calls of the source. Cut-off read from the data, not from the text of the source: active = GI50 up to about 1.1 µM and inactive = higher.
Give your call using only these classes: Y (active), N (inactive)

Some solved entries appear below for comparison.
{"compound": "COc1cc2nc(-c3ccccc3)cc(O)c2cc1OC", "tested on": "SK-OV-3", "classification": "N"}
{"compound": "CNC(=O)C1OC(n2cnc3c(NCc4cccc(I)c4)nc(Cl)nc32)C(O)C1O (centres undefined)", "tested on": "SK-OV-3", "classification": "N"}
{"compound": "Nc1nc(S)c2c(N)n[nH]c2c1C(=O)Nc1ccc(Cl)cc1", "tested on": "SK-OV-3", "classification": "N"}

# fetch the recorded call for O=c1c2cccnc2oc2c(Cl)cc(-c3nnn[nH]3)cc12 here N

# fetch the recorded call for COc1ccc(C(=O)C(CO)Oc2ccccc2OC)cc1OC (centres undefined) here N

# fetch the recorded call for N#Cc1c(-c2ccccc2)c(/C=N/c2cccc(C(F)(F)F)c2)c(=O)n2c1[nH]c1ccccc12 here N

# fetch the recorded call for Cc1ccc(S(=O)(=O)C2=c3nc4ccccc4cc3=C3C(=O)c4ccccc4C(=O)C32)cc1 (centres undefined) here Y

# fetch the recorded call for CC1(c2ccc(Cl)cc2)CC(c2ccc(Cl)cc2)=C(C#N)C(=C(C#N)C#N)N1 (centres undefined) here N

# fetch the recorded call for COc1nc(N)c(NC2OC(CO)C(O)C2O)c(=O)[nH]1 (centres undefined) here N

# fetch the recorded call for CC(=O)NC1C(O)C(O)C(CO)OC1n1nc(SCc2ccccc2)c(=O)[nH]c1=O (centres undefined) here N

# fetch the recorded call for COc1ccc(-c2oc(/C=N/NC(N)=S)c([N+](=O)[O-])c2-c2ccc(OC)c(OC)c2)cc1OC here N

# fetch the recorded call for CO[C@H]1ON=C(c2c(C)cc(C)cc2C)[C@@H]1C1(c2ccccc2)ON=C(c2c(C)cc(C)cc2C)O1 (some centres undefined) here N

# fetch the recorded call for CC(C)c1c(O[Si](C(C)C)(C(C)C)C(C)C)cc2c(c1O)CC[C@H]1C(C)(C)CCC[C@]21C here N

# fetch the recorded call for Cn1c(=O)c2nc(N3CCCCC3)cnc2n(C)c1=O here N

* * *

Test system: T47D
Assay: NCI tumour cell line growth inhibition, 48 h
The source made the active and inactive calls. Rule as the data show it: active = GI50 up to about 1.1 µM and inactive = higher.
measurement kind: GI50

For the molecule shown here, COc1ccc2c3c1OC1c4[nH]c5ccccc5c4CC4(O)C(C2)N(C)CCC314 (stereo not given) , give the reported GI50. 20.8 µM (inactive)

For the molecule shown here, CC12Cc3cc4c(cc3C1(c1ccc([N+](=O)[O-])cc1)OCCO2)OCO4 (stereo not given) , give the reported GI50. > 100 µM (inactive)

For the molecule shown here, CO/N=C(\C)c1ccc(Nc2c3ccccc3nc3occc23)cc1 , give the reported GI50. 0.522 µM (active)

For the molecule shown here, CC1=C(C#N)C2C(=C(C)N1)C(N)=Nc1ccccc12 (stereo not given) , give the reported GI50. 31.4 µM (inactive)

For the molecule shown here, CCOC(=O)C12C(=O)CCN1CCc1ccccc1C2C (stereo not given) , give the reported GI50. > 100 µM (inactive)

For the molecule shown here, Cc1ncc(-c2nnnn2-c2ccccc2)c(C(=O)O)n1 , give the reported GI50. > 100 µM (inactive)

For the molecule shown here, CN(C(=O)Cc1ccc(Cl)c(Cl)c1)[C@H]1CCCC[C@@H]1[N+]1(C)CCCC1 , give the reported GI50. > 100 µM (inactive)

For the molecule shown here, FC1(F)SC2CCCCCCCCCCC2C1(F)F (stereo not given) , give the reported GI50. 30.9 µM (inactive)

For the molecule shown here, COc1ccc(/N=c2/[nH]c(N)c(C(=O)c3ccc(OC)cc3)s2)cc1 , give the reported GI50. 18.7 µM (inactive)

For the molecule shown here, CC[C@@]1(O)C(=O)OCc2c1cc1n(c2=O)Cc2c-1nc1ccccc1c2/C=N/NC(=O)c1ccc(N)cc1 , give the reported GI50. < 0.01 µM (active)

* * *

System: SK-MEL-2
Assay: NCI tumour cell line growth inhibition, 48 h
Calls of active or inactive are those of the source. Cut-off read from the data, not from the text of the source: active = GI50 up to about 1.1 µM and inactive = higher.
GI50 values by entry

{"compound": "CCN(CC)P1(=S)Oc2ccc3ccccc3c2-c2c(ccc3ccccc23)O1", "GI50": "> 100 µM (inactive)"}
{"compound": "Cc1c(C(=O)N2CCN(c3ccc([N+](=O)[O-])cc3)CC2)[n+]([O-])c2cc(Cl)c(Cl)cc2[n+]1[O-]", "GI50": "31.3 µM (inactive)"}
{"compound": "O=C(Nc1ccccc1)c1cc2ccccc2c(/N=N/c2ccc([N+](=O)[O-])cc2)c1O", "GI50": "32.8 µM (inactive)"}
{"compound": "O=S1OC[C@H](CCCl)O1 (stereo not given in full)", "GI50": "> 100 µM (inactive)"}
{"compound": "CC(C)CNC1=NCC(C)S1 (stereo not given)", "GI50": "> 100 µM (inactive)"}
{"compound": "Cc1cc(=O)oc2cc(SC(=O)N(C)C)ccc12", "GI50": "> 100 µM (inactive)"}

For the compound shown here, CCC(C)[C@@H](NCc1ccccc1)[C@H](OCc1ccccc1)[C@@H]1COC(C)(C)O1 (stereo not given in full) , give the reported GI50. 18.2 µM (inactive)

For the compound shown here, Nc1nc(SCCNC(=O)CCc2ccc(O)cc2)nc2c1ncn2C1OC(CO)C(O)C1O (stereo not given) , give the reported GI50. > 203 µM (inactive)

For the compound shown here, O=S(=O)(O)c1cc(Nc2ccnc3ccccc23)c2c(S(=O)(=O)O)cc(S(=O)(=O)O)cc2c1 , give the reported GI50. > 100 µM (inactive)

For the compound shown here, O=c1c2ccccc2nc(N/N=C/c2ccccc2O)n1-c1ccccc1 , give the reported GI50. 7.67 µM (inactive)
